Tested on: IL6 secretion by OCI-LY3 ABC-DLBCL cells
Test details: Human IL6 Mesoscale assay (OCI-LY3)
Type: cell-based
Protocol conditions: Homo sapiens, 24 h
Measurement type: IC50
Give me the value, and tack the unit on after it.

Some entries whose results are on file:
N#Cc1cc(NC(=O)c2cnn(-c3cccc4c(N)nccc34)c2C(F)(F)F)cnc1-n1nccn1 [Cpd 328] | 741 nM
O=C(Nc1cnc(-n2cc(CO)cn2)c(Cl)c1)c1cnn(-c2cccc3ncccc23)c1C(F)(F)F [Cpd 135] | 98 nM
N#Cc1cc(NC(=O)c2cnn(-c3ccnc4cn[nH]c34)c2C(F)(F)F)cnc1-n1nccn1 [Cpd 262] | 182 nM
CNc1ncc(-n2ncc(C(=O)Nc3cnc(-n4nccn4)c(Cl)c3)c2C(F)(F)F)c2ccccc12 [Cpd 323] | 195 nM
Nc1ccc2c(-n3ncc(C(=O)Nc4cnc(-n5nccn5)c(Cl)c4)c3C(F)(F)F)cccc2n1 [Cpd 331] | 309 nM
CCc1cc(NC(=O)c2cnn(-c3cccc4nccn34)c2C(F)(F)F)c(CC)nc1-n1nccn1 [Cpd 196] | 83 nM
Nc1ncc(-n2ncc(C(=O)Nc3cc(Cl)c(-n4nccn4)cc3F)c2C(F)(F)F)c2ccccc12 [Cpd 327] | 129 nM

Attention now shifts to the item below.
Field: IC50 (IL6 secretion by OCI-LY3 ABC-DLBCL cells). Entry: Cc1nc(-n2nccn2)c(Cl)cc1NC(=O)c1cnn(-c2cnc(N3CC(O)C3)c3sccc23)c1C(F)(F)F [Cpd 433]
589 nM

* * *

// reported pIC50 per item
System: IL10 secretion by TMD8 ABC-DLBCL cells
Test details: Human IL10 Mesoscale assay (TMD-8)
Format: cell-based
Protocol conditions: Homo sapiens, TMD8; TMD-8 cells, 24 h
To interpret pIC50, take it as minus log10 of a concentration measured in moles per litre.

N#Cc1cc(NC(=O)c2cnn(-c3nncc4ccccc34)c2C(F)(F)F)cnc1-n1nccn1 [Cpd 102] | 6.73

Please give the measured pIC50 for this molecule: N#Cc1cc(NC(=O)c2cnn(-c3cncc4ccccc34)c2C(F)(F)F)cnc1C(=O)NCCCCN [Cpd 236]
6.37

* * *

Tested on: IL10 secretion by TMD8 ABC-DLBCL cells
Test details: Human IL10 Mesoscale assay (TMD-8)
Assay type: cell-based
Protocol conditions: Homo sapiens, TMD8; TMD-8 cells, 24 h
pIC50: −log10 of the molar value.
Would you please tag the item 1 when its pIC50 is 7 or above, and -1 when it is below?

Some entries whose results are on file:
O=C1CO[C@@H](c2ncc(-n3ncc(C(=O)Nc4cnc(-n5nccn5)c(Cl)c4)c3C(F)(F)F)c3ccccc23)C1 (single isomer, unassigned) [Cpd 438] | -1
N#Cc1ccc2c(-n3ncc(C(=O)Nc4cnc(-n5nccn5)c(Cl)c4)c3C(F)(F)F)cccc2n1 [Cpd 413] | -1
NCCCCNC(=O)c1ncc(NC(=O)c2cnn(-c3cncc4ccccc34)c2C(F)(F)F)cc1Cl [Cpd 72] | -1
O=C1COc2c(Cl)cc(NC(=O)c3cnn(-c4cncc5ccccc45)c3C(F)(F)F)cc2N1 [Cpd 87] | -1

Hello, I need to know if C[C@H](O)c1ncc(-n2ncc(C(=O)Nc3cnc(-n4nccn4)c(Cl)c3)c2C(F)(F)F)c2ccccc12 (single isomer, unassigned) [Cpd 443] has measured pIC50 not below 7. Thanks!
1
